# experiment_summary: yeast display, Sf9 membrane polyspecificity reagent, FACS + sequencing; frameworks hold sequencing errors
readout_kind: polyreactivity (PSR sort gate)

Solved entries (count: 5):
QVQLVESGGGLVQAGGSLRLSCAASGSTFIFYAMGWYRQAPGKERELVASITSRAASTYYADSVKGRFTFSRDNAKNTVYFQMNSLKPEVTAVYYCAANFSYTLFWWSSFLLYVYWGQGTQVTVSS    low polyreactivity
QVQLVESGGGLVQAGGSLRFSCAASGFNFDQNAMGWYRQAPGQERELVAAITRRGGRTYYADSVKGRFTISRDNAKYTVYLQMNSLKPEDTAVYYCAALLPVHHRGYYWGQGTQVTVSS    high polyreactivity
QVQLVESGGGLVQAGGSLRLSCAASGSIFLYYAMGWYRQAPGKERELVAAISQNGGSTYYADSVKGRFTISRDNAKNTVYLQMNSLKPEDTAVYYCNKYSFALRYDYWGQGTQVTVSS    low polyreactivity
QVQLVESGGGLVKAGGSLRLSCDSSGGTFSTYAMGWYRQAPGKERELVAAISWRGGSTYYAVSVKGRFTISRDNAKNTVYLQMNSLKPEYNAVYYCAAYYYRGWLLYWDEMYYWGQGTQVTVSS    high polyreactivity
QVQLVESGGCLVQAGGSLRLSCAASGSTFLINAMGWYRQAPGKEREFVASIRYRGATTYADSVKGRFTISRDNAKNTVYLQMNTLKPEDTAVYYCAASIWLRYHWGYDYWGQGTQVTVSS    high polyreactivity

The reported polyreactivity (PSR sort gate) of the sequence `QVQLVESGGGLVQAGGSLRLSCAASGFIFGDYAMGWYRQAPGKERELVAAINYSGGSTYYADSVKGRFTISRDNAKNTGYLQMNSLKPEDTAVYYCAALIYGLVGWGQGTQVTVSS` was low polyreactivity

The reported polyreactivity (PSR sort gate) of the sequence `QVQLVESGGGLVQAGGSLRLSCAASGTIFRWYAMGWYRQARGKEREFVAAITSSGGSTYYADSVKGRFTISRDNAKNTVYLQMNSLKPEDTAVYYCAARGWTANYEMDHWGQGTQVTVSS` was high polyreactivity

The reported polyreactivity (PSR sort gate) of the sequence `QVQLVESGGGLVQAGGSLRLSCAASGITFQSNAMGWYRQAPGKERELVAAIDWRGDSTYYADSVKGRFTISRDNAKNTVYLQMNSLKPEDTAVYYCNADISGSGQWDGYDYWGQGTQVTVSS` was low polyreactivity

The reported polyreactivity (PSR sort gate) of the sequence `QVQLVESGGGLVQAGGSLRLSCAASGITSRYYAMGWYRQAPGKERELVAAITSDGRTNYADSVKGRFTISRDNAKNTVYLQMNSLKPEETAVYYCAVARYPYRYDYWGQGTQVTVSS` was high polyreactivity

The reported polyreactivity (PSR sort gate) of the sequence `QVQHVESGGGIVQAGGSLRLTCAASGSTFGGNGMGWYRQAPGKEREFVATNTWRSVSTYYADSVKGRFTISRDNAKNTDFLQMISLKPEDTAVYYCAARLYRFASYRMDYWGQGTQVTVSS` was high polyreactivity
